system_tested: TXA2 receptors (Homo sapiens, UniProt P21731)
Sequence (P21731 whole entry): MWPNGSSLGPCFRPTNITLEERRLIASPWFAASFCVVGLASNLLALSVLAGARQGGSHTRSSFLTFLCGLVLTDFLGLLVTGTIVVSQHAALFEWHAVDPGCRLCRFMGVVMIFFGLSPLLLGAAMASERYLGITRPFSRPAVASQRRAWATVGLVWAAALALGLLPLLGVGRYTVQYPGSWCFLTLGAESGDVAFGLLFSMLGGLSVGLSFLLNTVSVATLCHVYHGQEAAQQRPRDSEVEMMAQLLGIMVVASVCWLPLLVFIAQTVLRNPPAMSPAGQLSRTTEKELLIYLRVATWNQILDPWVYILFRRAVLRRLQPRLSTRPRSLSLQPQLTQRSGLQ
Structures can show the parent of a compound that is named as a salt.
measurement_kind: IC50 (nM)

{"columns": ["compound", "system_tested", "measure_unit", "IC50"],
 "data": [
  ["COC(=O)c1ccc(CN2CCc3ccc(S(=O)(=O)Nc4cccc(Cl)c4)cc3C2)o1", "TXA2 receptors (Homo sapiens, UniProt P21731)", "nM", 5000]
]}

[1] O=C(O)c1ccnc(CN2CCc3ccc(S(=O)(=O)Nc4cccc(Cl)c4)cc3C2)c1 [Example 6, hydrochloride]
[2] O=C(O)c1ccc(CN2CCc3ccc(S(=O)(=O)Nc4cccc(Cl)c4)cc3C2)o1
Task: Please let me know which one, 1 or 2 , has a lower measured IC50 value. Your answer should be the label of the entry you select.
Output: 2
